system: rat thoracic aorta rings; type: cell-based
Experimental readout: EC50 (nM)

Past entries and their recorded results:
[
  {
    "Molecule": "CC(C)[C@H](NC(=O)[C@@H]1CSSC[C@H](NC(=O)[C@H](C)N)C(=O)N[C@@H](Cc2ccccc2)C(=O)N[C@H](C(C)(C)C)C(=O)N[C@@H](CCCCN)C(=O)N[C@@H](Cc2ccc(O)cc2)C(=O)N1)C(=O)O [Compound 8, [D-Tbg^4]URP]",
    "Measured target": "rat thoracic aorta rings",
    "Experimental readout": "EC50",
    "Recorded result": 262
  },
  {
    "Molecule": "CC(C)[C@H](NC(=O)[C@@H]1CSSC[C@H](NC(=O)[C@H](CC(=O)O)NC(=O)[C@@H]2CCCN2C(=O)[C@@H](NC(=O)[C@@H](N)CCC(=O)O)[C@@H](C)O)C(=O)N[C@@H](Cc2ccccc2)C(=O)N[C@@H](Cc2c[nH]c3ccccc23)C(=O)N[C@@H](CCCCN)C(=O)N[C@@H](Cc2ccc(O)cc2)C(=O)N1)C(=O)O [Compound 1, reference compound]",
    "Measured target": "rat thoracic aorta rings",
    "Experimental readout": "EC50",
    "Recorded result": 1
  },
  {
    "Molecule": "CC(C)[C@H](NC(=O)[C@@H]1CSSC[C@H](NC(=O)[C@H](C)N)C(=O)N[C@@H](Cc2ccccc2)C(=O)N2CCc3ccccc3[C@@H]2C(=O)N[C@@H](CCCCN)C(=O)N[C@@H](Cc2ccc(O)cc2)C(=O)N1)C(=O)O [Compound 17, [D-Tiq^4]URP]",
    "Measured target": "rat thoracic aorta rings",
    "Experimental readout": "EC50",
    "Recorded result": 21
  }
]

1. CC(C)[C@H](NC(=O)[C@@H]1CSSC[C@H](NC(=O)[C@H](C)N)C(=O)N[C@@H](Cc2ccccc2)C(=O)N2CCc3ccccc3[C@H]2C(=O)N[C@@H](CCCCN)C(=O)N[C@@H](Cc2ccc(O)cc2)C(=O)N1)C(=O)O
2. CC(C)[C@H](NC(=O)[C@@H]1CSSC[C@H](NC(=O)[C@H](C)N)C(=O)N[C@@H](Cc2ccccc2)C(=O)N2Cc3ccccc3C[C@@H]2C(=O)N[C@@H](CCCCN)C(=O)N[C@@H](Cc2ccc(O)cc2)C(=O)N1)C(=O)O [Compound 19, [D-Tic^4]URP]
3. CC(C)[C@H](NC(=O)[C@@H]1CSSC[C@H](NC(=O)[C@H](C)N)C(=O)N[C@@H](Cc2ccccc2)C(=O)N[C@@H](Cc2c[nH]c3ccccc23)C(=O)N[C@@H](CCCCN)C(=O)N[C@@H](Cc2ccc(O)cc2)C(=O)N1)C(=O)O [Compound 2, reference compound]
Falling order of EC50, please. Return value: ordered labels per request.
2, 1, 3
(2: 259 nM, 1: 22 nM, 3: 7 nM)
